Values compiled from patent US11746116B2.

System: VRE12201
measurement.notes: MIC, microdilution broth method
Format: cell-based, Enterococcus faecalis
experimental.parameters: VRE12201; in µg/mL
quantity.name: MIC

[
  {
    "smiles.text": "O=C(O)c1cn(C2CC2)c2cc(N3CCN(Cc4ccc(-c5ccccc5)cc4)CC3)c(F)cc2c1=O",
    "assayed.target": "VRE12201",
    "MIC": 4
  }
]

[a] CCn1cc(C(=O)O)c(=O)c2cc(F)c(N3CCN(Cc4ccc(CO)cc4)CC3)cc21
[b] O=C(O)c1cn(C2CC2)c2cc(N3CCN(Cc4ccc5ccccc5c4)CC3)c(F)cc2c1=O
**Query** I need your help: which of the pair a , b has higher MIC? Returns: label corresponding to the selected item.
**Result** a

* * *

Tested on: VRE12201
measurement.notes: MIC, microdilution broth method
Format: cell-based, Enterococcus faecalis
experimental.parameters: VRE12201; in µg/mL
quantity.name: MIC

[
  {
    "compound": "O=C(O)c1cn(C2CC2)c2cc(N3CCN(Cc4ccc(CO)cc4)CC3)c(F)cc2c1=O",
    "assay.result": 0.5
  },
  {
    "compound": "CCn1cc(C(=O)O)c(=O)c2cc(F)c(N3CCN(c4cccc5ccccc45)CC3)cc21",
    "assay.result": 2
  },
  {
    "compound": "CCn1cc(C(=O)O)c(=O)c2cc(F)c(N3CCNCC3)nc21 [Enoxacin, enoxacin, reference compound]",
    "assay.result": 8
  }
]

[a] CCn1cc(C(=O)O)c(=O)c2cc(F)c(N3CCN(Cc4ccc(-c5noc(C)n5)cc4)CC3)cc21
[b] C[C@H]1COc2c(N3CCC(n4cccn4)CC3)c(F)cc3c(=O)c(C(=O)O)cn1c23
**Query** Which of these two has the smaller recorded MIC: a or b ? Refer to your chosen item by its label in the answer.
**Result** a

* * *

System: VRE12201
measurement.notes: MIC, microdilution broth method
Type: cell-based, Enterococcus faecalis
experimental.parameters: VRE12201; in µg/mL
Below, each entry is listed alongside its reported MIC.

[
  {
    "smiles.text": "C[C@H]1COc2c(N3CCN(Cc4cccc5ccccc45)CC3)c(F)cc3c(=O)c(C(=O)O)cn1c23",
    "MIC": "0.5-1"
  }
]

**Query** May I ask what MIC has been recorded for O=C(O)c1cn(C2CC2)c2cc(N3CCN(Cc4ccc(-c5csnn5)cc4)CC3)c(F)cc2c1=O ?
**Result** 0.5

**Query** Then O=C(O)c1cn(C2CC2)c2cc(N3CCN(Cc4ccc(I)cc4)CC3)c(F)cc2c1=O ?
**Result** 1-2

**Query** Same lookup for CCn1cc(C(=O)O)c(=O)c2cc(F)c(N3CCN(Cc4cc(=O)[nH]c5ccccc45)CC3)cc21 , please.
**Result** >32

* * *

assayed.target: CYP2C19 (Homo sapiens)
Sequence (P33261 whole entry): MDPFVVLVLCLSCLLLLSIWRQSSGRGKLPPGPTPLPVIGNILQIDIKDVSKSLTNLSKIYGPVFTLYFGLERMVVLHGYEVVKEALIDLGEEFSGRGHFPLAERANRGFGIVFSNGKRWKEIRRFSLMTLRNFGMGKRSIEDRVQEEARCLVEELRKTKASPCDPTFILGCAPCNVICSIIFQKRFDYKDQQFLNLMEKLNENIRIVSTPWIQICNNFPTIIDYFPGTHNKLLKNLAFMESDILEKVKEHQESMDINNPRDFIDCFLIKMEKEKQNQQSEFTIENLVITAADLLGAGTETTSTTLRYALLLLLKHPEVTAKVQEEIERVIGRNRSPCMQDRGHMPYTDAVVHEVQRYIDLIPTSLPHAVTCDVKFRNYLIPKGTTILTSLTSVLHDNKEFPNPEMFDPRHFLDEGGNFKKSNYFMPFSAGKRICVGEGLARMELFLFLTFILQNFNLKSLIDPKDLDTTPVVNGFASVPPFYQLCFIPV
measurement.notes: in vitro
experimental.parameters: microsomes, % inhibition, CYP2C19 inhibition (HLM, omeprazole substrate)
quantity.name: inhibition at 10 µM (%)
Express the result in % but write the number alone.

**Query** API: value(readout= inhibition at 10 µM, system= CYP2C19 (Homo sapiens), query= C[C@H]1COc2c(N3CC[C@@H](Nc4ncccn4)C3)c(F)cc3c(=O)c(C(=O)O)cn1c23 [KSN-82-L22] )
**Result** 0.632
